Assay: Hansen solubility parameters (HSP) from rated solvent library, optimized in HSPiP; Ra and RED versus water
Format: physicochemical
Conditions: distance to water HSP of dense condition (18.1, 17.1, 16.9)
parameter: Water2 Ra (MPa^0.5)
# unit: MPa^0.5 | format: bare number

Incoming: Which Water2 Ra value belongs to c1cncc(-c2nc3c4cccnc4c4ncccc4c3[nH]2)c1 ?
Outgoing: 3.7

Incoming: Could you share which Water2 Ra value was measured for C1=C(c2ccccc2)Cc2c1c1ccccc1c1ccccc21 [C1, 2-phenyl-1H-cyclophen[l]phenanthrene, reference compound] ?
Outgoing: 20.8

Incoming: Dear colleague, I am looking for the recorded Water2 Ra of the following compound: c1ccc(-c2nc3c4cccnc4c4ncccc4c3[nH]2)cc1
Outgoing: 10.5

Incoming: Which measured Water2 Ra value corresponds to c1ccc(-c2nc3c4cccnc4c4ncccc4c3o2)cc1 ?
Outgoing: 5.1

Incoming: Can you share its Water2 Ra? I mean this compound: c1cnc2c(c1)c1nc(-c3ccncc3)[nH]c1c1cccnc12
Outgoing: 3.8
